- Study target: rhHDAC 7 (Homo sapiens, UniProt Q8WUI4)
- Sequence (Q8WUI4 whole entry, canonical isoform): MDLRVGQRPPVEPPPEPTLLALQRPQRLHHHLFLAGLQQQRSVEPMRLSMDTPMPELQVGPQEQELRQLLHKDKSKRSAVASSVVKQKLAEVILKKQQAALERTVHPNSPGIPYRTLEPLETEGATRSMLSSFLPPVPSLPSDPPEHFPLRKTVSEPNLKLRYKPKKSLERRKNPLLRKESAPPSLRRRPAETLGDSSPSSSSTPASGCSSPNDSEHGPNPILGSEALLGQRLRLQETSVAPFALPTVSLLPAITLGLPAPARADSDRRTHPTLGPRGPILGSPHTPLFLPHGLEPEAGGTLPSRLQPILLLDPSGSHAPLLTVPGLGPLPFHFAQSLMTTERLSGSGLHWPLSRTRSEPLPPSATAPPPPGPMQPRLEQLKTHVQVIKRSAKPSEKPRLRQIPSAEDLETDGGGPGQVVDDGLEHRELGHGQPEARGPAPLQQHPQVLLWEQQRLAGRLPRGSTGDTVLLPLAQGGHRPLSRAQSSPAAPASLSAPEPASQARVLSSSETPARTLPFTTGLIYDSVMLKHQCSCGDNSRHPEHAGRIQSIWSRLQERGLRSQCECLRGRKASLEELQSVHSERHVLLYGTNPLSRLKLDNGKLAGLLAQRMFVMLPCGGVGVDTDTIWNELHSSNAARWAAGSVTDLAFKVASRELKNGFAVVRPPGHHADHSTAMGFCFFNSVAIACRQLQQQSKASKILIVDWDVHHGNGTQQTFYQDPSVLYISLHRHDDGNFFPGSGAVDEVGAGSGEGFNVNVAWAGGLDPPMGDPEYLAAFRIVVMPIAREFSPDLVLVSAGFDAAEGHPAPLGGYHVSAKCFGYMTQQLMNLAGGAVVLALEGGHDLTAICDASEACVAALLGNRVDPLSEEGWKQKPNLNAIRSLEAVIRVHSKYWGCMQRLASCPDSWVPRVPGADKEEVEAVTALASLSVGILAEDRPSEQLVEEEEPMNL
- Test name: Inhibition of recombinant human HDAC isoforms
- Condition: mean ± SD, triplicate per plate, min two plates; read-out: ED50 rhHDAC 7
Recorded metric: IC50 (nM)

Prompt: Look up IC50 for this molecule: `O=C(/C=C/c1cccc(S(=O)(=O)N2CCN(c3ccccn3)CC2)c1)NO`
Response: 100

1. O=C(/C=C/c1nc2ccccc2o1)NO
2. COc1ccc(NS(=O)(=O)c2cccc(/C=C/C(=O)NO)c2)cc1
Prompt: Smaller IC50 value, 1 vs 2 ? Your answer should be the label of the entry you select.
Response: 2

* * *

- Study target: rhHDAC 4 (Homo sapiens, UniProt P56524)
- Sequence (P56524 whole entry, canonical isoform): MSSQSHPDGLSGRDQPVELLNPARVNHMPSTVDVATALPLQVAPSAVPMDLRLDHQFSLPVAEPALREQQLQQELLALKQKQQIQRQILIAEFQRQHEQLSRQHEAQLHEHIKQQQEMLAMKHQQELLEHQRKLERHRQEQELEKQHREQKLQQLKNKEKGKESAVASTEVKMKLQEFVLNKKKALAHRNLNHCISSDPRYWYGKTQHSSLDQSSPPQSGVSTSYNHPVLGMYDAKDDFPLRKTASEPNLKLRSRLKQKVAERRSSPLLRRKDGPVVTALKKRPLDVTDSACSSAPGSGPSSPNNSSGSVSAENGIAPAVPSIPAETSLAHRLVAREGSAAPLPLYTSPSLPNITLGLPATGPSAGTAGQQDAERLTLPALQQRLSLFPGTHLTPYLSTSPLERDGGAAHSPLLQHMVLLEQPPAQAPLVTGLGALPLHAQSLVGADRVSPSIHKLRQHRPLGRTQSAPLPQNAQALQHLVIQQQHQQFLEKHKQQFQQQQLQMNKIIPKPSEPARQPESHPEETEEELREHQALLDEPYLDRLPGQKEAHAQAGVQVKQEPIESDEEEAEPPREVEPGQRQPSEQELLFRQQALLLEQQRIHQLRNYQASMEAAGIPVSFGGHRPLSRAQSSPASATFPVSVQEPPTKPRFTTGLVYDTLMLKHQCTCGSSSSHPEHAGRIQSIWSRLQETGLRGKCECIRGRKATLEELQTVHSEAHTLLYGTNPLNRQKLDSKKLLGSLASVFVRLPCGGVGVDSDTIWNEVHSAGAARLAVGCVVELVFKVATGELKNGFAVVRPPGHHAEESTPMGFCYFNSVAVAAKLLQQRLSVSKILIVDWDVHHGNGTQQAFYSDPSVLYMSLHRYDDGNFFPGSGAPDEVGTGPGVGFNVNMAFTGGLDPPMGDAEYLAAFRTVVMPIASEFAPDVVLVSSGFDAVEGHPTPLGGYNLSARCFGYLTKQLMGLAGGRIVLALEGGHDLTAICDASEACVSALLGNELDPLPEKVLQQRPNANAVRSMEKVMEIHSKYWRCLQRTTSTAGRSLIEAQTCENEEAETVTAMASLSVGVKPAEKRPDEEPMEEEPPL
- Test name: Inhibition of recombinant human HDAC isoforms
- Condition: mean ± SD, triplicate per plate, min two plates; read-out: ED50 rhHDAC 4
- Excerpt: The compounds from the different structural subclasses were all active as HDAC inhibitors, measured in an assay of enzymes in HeLa cell lysates.[23,24] HeLa cells express multiple HDACs, including HDAC 1, 2, 3, 4, and 8.[25–27] […] To further characterise the compounds with respect to HDAC selectivity, we determined their inhibitory properties against recombinant expressed human HDACs (rhHDAC 1–4, 6–9).[28]
pIC50: −log10 of the molar value.
Recorded metric: pIC50

Prompt: Look up pIC50 for this molecule: COc1ccc(N2CCN(S(=O)(=O)c3cccc(/C=C/C(=O)NO)c3)CC2)cc1 [Compound 10]
Response: 6.06

A. COc1ccc(NS(=O)(=O)c2cccc(/C=C/C(=O)NO)c2)cc1 [Compound 18]
B. O=C(/C=C/c1cccc(S(=O)(=O)Nc2cccc(F)c2)c1)NO [Compound 15]
C. O=C(/C=C/c1nc2ccccc2o1)NO [Compound 20]
Prompt: Ascending by pIC50, please: list the molecules accordingly. Labels, requested order.
Response: C, B, A

* * *

- Study target: rhHDAC 8 (Homo sapiens, UniProt Q9BY41)
- Sequence (Q9BY41 whole entry, canonical isoform): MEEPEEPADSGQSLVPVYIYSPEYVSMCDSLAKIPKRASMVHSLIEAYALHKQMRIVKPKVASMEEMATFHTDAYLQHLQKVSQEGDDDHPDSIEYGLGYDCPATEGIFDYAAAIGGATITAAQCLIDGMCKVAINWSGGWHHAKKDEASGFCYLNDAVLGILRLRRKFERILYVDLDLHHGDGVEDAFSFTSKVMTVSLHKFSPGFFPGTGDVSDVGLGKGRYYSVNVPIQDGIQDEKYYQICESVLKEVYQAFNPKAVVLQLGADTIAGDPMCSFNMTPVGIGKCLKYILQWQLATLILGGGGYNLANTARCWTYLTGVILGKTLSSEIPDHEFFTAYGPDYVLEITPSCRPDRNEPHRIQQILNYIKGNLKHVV
- Test name: Inhibition of recombinant human HDAC isoforms
- Condition: mean ± SD, triplicate per plate, min two plates; read-out: ED50 rhHDAC 8
- Excerpt: The compounds from the different structural subclasses were all active as HDAC inhibitors, measured in an assay of enzymes in HeLa cell lysates.[23,24] HeLa cells express multiple HDACs, including HDAC 1, 2, 3, 4, and 8.[25–27] […] To further characterise the compounds with respect to HDAC selectivity, we determined their inhibitory properties against recombinant expressed human HDACs (rhHDAC 1–4, 6–9).[28]
Recorded metric: IC50 (nM)

Example compounds with recorded IC50:
Prompt: What reported IC50 corresponds to `COc1ccc(N2CCN(S(=O)(=O)c3cccc(/C=C/C(=O)NO)c3)CC2)cc1` on rhHDAC 8 (Homo sapiens, UniProt Q9BY41)?
Response: 955

Prompt: What reported IC50 corresponds to `O=C(/C=C/c1nc2ccccc2o1)NO` on rhHDAC 8 (Homo sapiens, UniProt Q9BY41)?
Response: 573

Prompt: What reported IC50 corresponds to `COc1ccccc1N1CCN(S(=O)(=O)c2cccc(/C=C/C(=O)NO)c2)CC1` on rhHDAC 8 (Homo sapiens, UniProt Q9BY41)?
Response: 328

Prompt: What reported IC50 corresponds to `COc1ccc(NS(=O)(=O)c2cccc(/C=C/C(=O)NO)c2)cc1` on rhHDAC 8 (Homo sapiens, UniProt Q9BY41)?
Response: 167

I. O=C(/C=C/c1cccc(S(=O)(=O)Nc2cccc(F)c2)c1)NO
II. O=C(/C=C/c1cccc(S(=O)(=O)N2CCN(c3ccccn3)CC2)c1)NO
Prompt: Between I and II , whose recorded IC50 is greater? Your answer should be the label of the entry you select.
Response: II
